# assayed_target: T1, CD27 expressed on the cell surface (HT1080_CD27 cells) (human, UniProt P26842 20-260)
# T1 construct: whole, on cells; also called K562_CD27
# T1 sequence (looked up): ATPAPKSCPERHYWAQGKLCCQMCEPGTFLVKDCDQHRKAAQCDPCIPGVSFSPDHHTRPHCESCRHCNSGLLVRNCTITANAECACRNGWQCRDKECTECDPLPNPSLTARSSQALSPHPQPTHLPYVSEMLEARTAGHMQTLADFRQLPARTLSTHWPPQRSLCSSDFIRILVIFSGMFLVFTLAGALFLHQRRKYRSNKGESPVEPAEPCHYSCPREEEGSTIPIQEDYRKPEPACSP
# method_notes: cellular binding assay, HT1080_CD27 cells; also: test concentration or dose not given here

# binder, Cellular binding assay [RFU] [RFU]
rows = [
    ("P018.S.05.A.C06 (antibody, V domains shown, V regions on human Ig constant parts; also called AB27_85) VH: QSLEESGGRLVTPGTPLTLTCTASGFSLSNYYITWVRQAPGEGLEWIGTISTAGNTYFASWAKGRFTISRTSTTVDLKMTSPTTEDTATYFCARDGAGDSNYYRNLWGQGTLVTVSS VL: DIVLTQTPASVEAAVGGTVTIKCQASQSIDRFLAWYQQKPGQPPKLLIVDASTLESGVPSRFSGSGSGTEFTLTISDLESDNAATYYCQQGYSISDIDNVFGGGTEVVVK", 351),
    ("P018.S.01.A.H02 (antibody, V domains shown, V regions on human Ig constant parts; also called AB27_25) VH: QSVEESGGRLVTPGTPLTLTCTASGFSLSSYHMQWVRQAPGKGLEWIGIIYAGSGNTWYASWAKGRFTISKTSTTVDLKITSPTTEDTAAYFCARQPGGDASDTQLDLWGQGTLVTVSS VL: AAVLTQTASPVSAAVGGTVTINCQSSQSVFDHNQLSWFQHKPGQSPKLLIYRASTLASGVPSRFKGSGSGTQFTLTISDVQSDDAATYYCLGGYSSSSDTVFGGGTEVVVK", 317),
    ("P018.S.10.A.C03 (antibody, V domains shown, V regions on human Ig constant parts; also called AB27_172) VH: QSVEESGGRLVTPGTPLTLTCTVSGFSLSSYYMIWVRQAPGKGLEWIGIINTSGGAYYATWANGRFTISRTSTTVDLKITSPTTEDTATYFCARYLDNGFYCPDLWGQGTLVIVSS VL: DIVMTQTPSSVSEAVGGTVTIKCQASEDIYTLLAWYQQKPGQPPKLLIYKASILASGVSSRFKGGGSGADFTLTISDLESADAATYYCQSTYYGAAYIGAFGGGTEVVVK", 360),
]
